tested on: Staphylococcus aureus; assay: Antimicrobial screening, resazurine test; type: cell-based; conditions: Staphylococcus aureus, S. aureus, c = 25 µg·mL-1; read-out: Inhibition of the microorganism
The reader will find reported inhibition at 25 µg/mL values listed item by item below.
State the answer as a number, implicitly in %.

CC1(C)C=C2[C@H]3CC[C@@H]4[C@@]5(C)CCC(=O)C(C)(C)[C@@H]5CC[C@@]4(C)[C@]3(C)CC[C@@]2(C(=O)NCCOCCOCCOCCn2cc(CO[C@H]3CC[C@]4(C)[C@H]5CC=C6C7CC(C)(C)CC[C@]7(C(=O)O)CC[C@@]6(C)[C@]5(C)CC[C@H]4C3(C)C)nn2)CC1 (some centres unmarked) [6c] :: 13

Now look at this entry.
CC1(C)C=C2C3CC[C@@H]4[C@@]5(C)CC[C@H](OCc6cn(CCOCCOCCOCCNC(=O)[C@]78CCC(C)(C)C=C7[C@H]7CC[C@@H]9[C@@]%10(C)CCC(=O)C(C)(C)[C@@H]%10CC[C@@]9(C)[C@]7(C)CC8)nn6)C(C)(C)[C@@H]5CC[C@@]4(C)[C@]3(C)CC[C@@]2(C(=O)O)CC1 (some centres unmarked) [6d] has a reported inhibition at 25 µg/mL of 25

Each recorded value in this set is attributed to paper PMC8391127.
